Assay: Neurotoxicity in po dosed albino Sprague-Dawley rat assessed as minimal motor impairment after 0.5 to 1 hr
Format: toxicity, organism-based
Conditions: in vivo
Lab note - cut at 100 mg/kg for TD50: 1 if strictly below, 0 if not.

Task: Record CCCC(C(N)=O)C(C)CC (racemic) : is its TD50 strictly below 100 mg/kg?
Output: 0

Task: Record CCC[C@H](C(N)=O)[C@@H](C)CC : is its TD50 strictly below 100 mg/kg?
Output: 0

Task: Record CCC[C@@H](C(N)=O)[C@@H](C)CC [(2R,3S)-SEC-BUTYLPROPYLACETAMIDE] : is its TD50 strictly below 100 mg/kg?
Output: 1

Turning now to a further compound:
Task: Record CCC[C@H](C(N)=O)[C@H](C)CC [(2S,3R)-SEC-BUTYLPROPYLACETAMIDE] : is its TD50 strictly below 100 mg/kg?
Output: 0

----------
Test system: Mus musculus
Assay: Teratogenicity in SWV/Fnn mouse assessed as live fetuses at 283 mg/kg, ip on day 8.5 of gestation (reference value: 93.7 %)
Assay type: toxicity, organism-based
Design: dose 283 mg/kg, route intraperitoneal
Conditions: in vivo
Given measured Activity, output 1 if it is greater than or equal to 90% and 0 if not.

Would you please look over these solved cases?
Task: Does Activity meet or surpass 90% for CCCC(C(N)=O)C(C)CC (racemic) ?
Output: 0

Task: Does Activity meet or surpass 90% for CCC[C@@H](C(N)=O)[C@H](C)CC [(2R,3R)-SEC-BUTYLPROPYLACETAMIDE] ?
Output: 0

Turning now to a further compound:
Task: Does Activity meet or surpass 90% for CCC[C@@H](C(N)=O)[C@@H](C)CC [(2R,3S)-SEC-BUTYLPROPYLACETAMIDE] ?
Output: 1

----------
Test: Cmax in rat at 60 mg/kg, ip
Format: ADME, organism-based
Design: dose 60 mg/kg, route intraperitoneal
Conditions: in vivo
Reported Cmax is given for each of the following molecules.
Numbers only; they are read as ng/mL.

Please review the entries below; each comes with its answer.
Task: Find the recorded Cmax belonging to CCCC(C(N)=O)C(C)CC (racemic) and report it.
Output: 14100

Task: Find the recorded Cmax belonging to CCC[C@H](C(N)=O)[C@H](C)CC [(2S,3R)-SEC-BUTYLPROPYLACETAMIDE] and report it.
Output: 8000

Task: Find the recorded Cmax belonging to CCC[C@@H](C(N)=O)[C@@H](C)CC [(2R,3S)-SEC-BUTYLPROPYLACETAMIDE] and report it.
Output: 5300

Task: Find the recorded Cmax belonging to CCC[C@H](C(N)=O)[C@@H](C)CC and report it.
Output: 21700

Proceed to the following item.
Task: Find the recorded Cmax belonging to CCC[C@@H](C(N)=O)[C@H](C)CC [(2R,3R)-SEC-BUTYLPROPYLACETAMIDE] and report it.
Output: 18000

----------
Test system: Mus musculus
Assay: Teratogenicity in SWV/Fnn mouse assessed as fetuses with neural tube defects at 283 mg/kg, ip on day 8.5 of gestation relative to vehicle-treated control
Format: toxicity, organism-based
Parameters: dose 283 mg/kg, route intraperitoneal
Settings: in vivo
assayMetric: Activity

Please review the entries below; each comes with its answer.
Task: Recorded Activity for CCC[C@@H](C(N)=O)[C@@H](C)CC [(2R,3S)-SEC-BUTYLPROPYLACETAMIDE] with Mus musculus, please?
Output: 0%

Task: Recorded Activity for CCC[C@H](C(N)=O)[C@H](C)CC [(2S,3R)-SEC-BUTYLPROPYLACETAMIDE] with Mus musculus, please?
Output: 0%

Task: Recorded Activity for CCC[C@H](C(N)=O)[C@@H](C)CC with Mus musculus, please?
Output: 0%

Task: Recorded Activity for CCCC(C(N)=O)C(C)CC (racemic) with Mus musculus, please?
Output: 0%

Proceed to the following item.
Task: Recorded Activity for CCC[C@@H](C(N)=O)[C@H](C)CC [(2R,3R)-SEC-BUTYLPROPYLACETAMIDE] with Mus musculus, please?
Output: 5.4%

----------
Tested on: Mus musculus
Assay: Teratogenicity in SWV/Fnn mouse assessed as resorption at 283 mg/kg, ip on day 8.5 of gestation (reference value: 6.3 %)
Format: toxicity, organism-based
Design: dose 283 mg/kg, route intraperitoneal
Details: in vivo
assayMetric: Activity (%)
Numbers only; they are read as %.

Please review the entries below; each comes with its answer.
Task: Recorded Activity for CCC[C@@H](C(N)=O)[C@H](C)CC [(2R,3R)-SEC-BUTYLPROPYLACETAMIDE] with Mus musculus, please?
Output: 22.9

Task: Recorded Activity for CCC[C@@H](C(N)=O)[C@@H](C)CC [(2R,3S)-SEC-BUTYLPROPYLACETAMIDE] with Mus musculus, please?
Output: 6.5

Task: Recorded Activity for CCCC(C(N)=O)C(C)CC (racemic) with Mus musculus, please?
Output: 13.4

Task: Recorded Activity for CCC[C@H](C(N)=O)[C@H](C)CC [(2S,3R)-SEC-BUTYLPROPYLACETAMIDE] with Mus musculus, please?
Output: 9.4

Proceed to the following item.
Task: Recorded Activity for CCC[C@H](C(N)=O)[C@@H](C)CC with Mus musculus, please?
Output: 7.5

----------
Assay: Apparent clearance in rat at 60 mg/kg, ip
Assay type: ADME, organism-based
Design: dose 60 mg/kg, route intraperitoneal
Conditions: in vivo
Reported CL/F is given for each of the following molecules.
Numbers only; they are read as mL/min/kg.

Task: Find the recorded CL/F belonging to CCC[C@H](C(N)=O)[C@@H](C)CC and report it.
Output: 30

Task: Find the recorded CL/F belonging to CCC[C@H](C(N)=O)[C@H](C)CC [(2S,3R)-SEC-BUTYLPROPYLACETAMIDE] and report it.
Output: 76.7

More entries:
Task: Find the recorded CL/F belonging to CCC[C@@H](C(N)=O)[C@@H](C)CC [(2R,3S)-SEC-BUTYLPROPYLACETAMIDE] and report it.
Output: 65

Task: Find the recorded CL/F belonging to CCC[C@@H](C(N)=O)[C@H](C)CC [(2R,3R)-SEC-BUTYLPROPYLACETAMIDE] and report it.
Output: 36.7

Task: Find the recorded CL/F belonging to CCCC(C(N)=O)C(C)CC (racemic) and report it.
Output: 30

----------
Assay: Apparent volume of distribution […] in rat at 60 mg/kg, ip
Assay type: ADME, organism-based
Design: dose 60 mg/kg, route intraperitoneal
Settings: in vivo, read-out: Vz/F
assayMetric: Vd/F (L/kg)
Numbers only; they are read as L/kg.

Task: Find the recorded Vd/F belonging to CCC[C@H](C(N)=O)[C@@H](C)CC and report it.
Output: 3.9

Task: Find the recorded Vd/F belonging to CCCC(C(N)=O)C(C)CC (racemic) and report it.
Output: 3

Task: Find the recorded Vd/F belonging to CCC[C@@H](C(N)=O)[C@@H](C)CC [(2R,3S)-SEC-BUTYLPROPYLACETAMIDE] and report it.
Output: 7.2

Task: Find the recorded Vd/F belonging to CCC[C@@H](C(N)=O)[C@H](C)CC [(2R,3R)-SEC-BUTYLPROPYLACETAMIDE] and report it.
Output: 3.6

More entries:
Task: Find the recorded Vd/F belonging to CCC[C@H](C(N)=O)[C@H](C)CC [(2S,3R)-SEC-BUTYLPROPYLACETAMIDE] and report it.
Output: 6.3

----------
Reported MRT is given for each of the following compounds.
Assay: Mean residence time in rat at 60 mg/kg, ip
Assay type: ADME, organism-based
Set-up: dose 60 mg/kg, route intraperitoneal
Conditions: in vivo
# do not omit the unit; it follows the number

Please review the entries below; each comes with its answer.
Task: Find the recorded MRT belonging to CCCC(C(N)=O)C(C)CC (racemic) and report it.
Output: 1.8 h

Task: Find the recorded MRT belonging to CCC[C@H](C(N)=O)[C@H](C)CC [(2S,3R)-SEC-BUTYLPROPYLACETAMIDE] and report it.
Output: 1.5 h

More entries:
Task: Find the recorded MRT belonging to CCC[C@H](C(N)=O)[C@@H](C)CC and report it.
Output: 1.8 h

Task: Find the recorded MRT belonging to CCC[C@@H](C(N)=O)[C@@H](C)CC [(2R,3S)-SEC-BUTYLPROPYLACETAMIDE] and report it.
Output: 2.2 h

Task: Find the recorded MRT belonging to CCC[C@@H](C(N)=O)[C@H](C)CC [(2R,3R)-SEC-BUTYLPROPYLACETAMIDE] and report it.
Output: 1.5 h

----------
Tested on: Mus musculus
Assay: Teratogenicity in SWV/Fnn mouse assessed as live fetuses at 141 mg/kg, ip on day 8.5 of gestation (reference value: 93.7 %)
Type: toxicity, organism-based
Design: dose 141 mg/kg, route intraperitoneal
Conditions: in vivo
Reported Activity is given for each of the following molecules.
Numbers only; they are read as %.

Please review the entries below; each comes with its answer.
Task: Find the recorded Activity belonging to CCC[C@@H](C(N)=O)[C@@H](C)CC [(2R,3S)-SEC-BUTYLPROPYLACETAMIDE] and report it.
Output: 91.6

Task: Find the recorded Activity belonging to CCC[C@H](C(N)=O)[C@@H](C)CC and report it.
Output: 94.2

Task: Find the recorded Activity belonging to CCC[C@H](C(N)=O)[C@H](C)CC [(2S,3R)-SEC-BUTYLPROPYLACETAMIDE] and report it.
Output: 92.6

More entries:
Task: Find the recorded Activity belonging to CCC[C@@H](C(N)=O)[C@H](C)CC [(2R,3R)-SEC-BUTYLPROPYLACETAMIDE] and report it.
Output: 92.5

Task: Find the recorded Activity belonging to CCCC(C(N)=O)C(C)CC (racemic) and report it.
Output: 92.5
